System: NCI-H460
Test: NCI tumour cell line growth inhibition, 48 h
The source made the active and inactive calls. No stated cut-off is given here; in the data, active = GI50 up to about 1.1 µM and inactive = higher. Numbered stars: 1 amine (or outer) side, 2 acyl side, 3 side chain; on linkers, the order of the positions; unused ones are H or OH. Bridge positions count the residues as written; N and C are the ends. Square brackets hold non-standard residues; d marks the D form. Peptide text beside a SMILES is read from it. * marks the point of attachment. ξ: configuration not given here. X33 = O=C(C(CCCCNO[*:3])N[*:1])[*:2]; Fmoc = O=C(OCC1c2ccccc2-c2ccccc21)*; ξW = NC(Cc1c[nH]c2ccccc12)C(=O)O; ξP = O=C(O)C1CCCN1
property: GI50

NC(=O)CNC(=O)C1CCCN1C(=O)C1CCCCNOC(=O)CC[C@@H](NC(=O)OCC2c3ccccc3-c3ccccc32)C(=O)NC(Cc2c[nH]c3ccccc23)C(=O)N1 (stereo not given in full) (Fmoc-[dE][ξW][X33][ξP]G-NH2; ester 1-3) : > 100 µM (inactive)

Query string: Which measured GI50 value corresponds to "CC(=O)c1sc2c(c1OC(=O)c1ccc(Cl)cc1)c(=O)n(-c1ccccc1)c(=S)n2-c1ccccc1" ?
Result string: 4.86 µM (inactive)

Query string: "O=C(N/N=C/c1ccc([N+](=O)[O-])cc1)Nc1ccc(Br)cc1" ?
Result string: > 100 µM (inactive)

Query string: What do you get for Cn1c(C(C#N)c2cc(Cl)ncn2)nc2ccccc21 (stereo not given) ?
Result string: > 100 µM (inactive)

Query string: And then "COC1(OC)c2occc2C(=N)c2ccc(=O)oc21" , what is it?
Result string: > 100 µM (inactive)

Query string: Input "O=c1[nH]c(=O)n([C@@H]2C[C@H](CO)[C@H](O)C2)cc1/C=C/Br"
Result string: > 100 µM (inactive)

Query string: What about this compound? "Cc1cc(=O)oc2cc(OC(=O)Nc3ccc(Cl)c(Cl)c3)ccc12"
Result string: 18.5 µM (inactive)

Query string: // query: NC(=O)C(=O)N/N=C1\C(=O)N(c2ccc(Cl)cc2Cl)C(=O)C1C(=O)Nc1ccc(Cl)cc1Cl (stereo not given)
Result string: > 100 µM (inactive)

Query string: Please answer likewise for "COc1cc(C=O)ccc1O"
Result string: > 100 µM (inactive)

Query string: O=C1CC(Br)c2c(Br)sc(Br)c21 (stereo not given) , same question.
Result string: 17.3 µM (inactive)
